What pIC50 was measured for each of the following?
- Tested on: SK-BR-3
- assay.notes: Cytotoxicity against human SKBR3 cells after 48 hrs by MTT assay
- Assay type: functional, cell-based
- measurement.setup: SK-BR-3, 48 h
pIC50 (log units): -log10 of the concentration in mol/L.

Inquiry: Observed pIC50 on SK-BR-3 for `C/C=C/C1=N[C@@H]([C@H]2OC(=O)C=C[C@@H]2OC(C)=O)[C@@H](c2ccccc2)O1` , please.
Reply text: 5.65

Inquiry: Observed pIC50 on SK-BR-3 for `CC(=O)O[C@H]1C=CC(=O)O[C@@H]1c1nc(/C=C/c2ccccc2)oc1-c1ccccc1` , please.
Reply text: 5.13

Inquiry: Observed pIC50 on SK-BR-3 for `CC(=O)O[C@H]1C=CC(=O)O[C@@H]1[C@@H]1N=C(/C=C/c2ccccc2)O[C@@H]1c1ccccc1` , please.
Reply text: 5.39

Inquiry: Observed pIC50 on SK-BR-3 for `CC(=O)O[C@H]1C=CC(=O)O[C@H]1[C@H]1O[C@@H]1c1ccccc1` , please.
Reply text: 4.69

====

- Test system: SK-BR-3
- assay.notes: Cytotoxicity against human SKBR3 cells after 48 hrs by MTT assay
- Type: functional, cell-based
- measurement.setup: SK-BR-3, 48 h
pIC50: −log10 of the molar value.
What pIC50 was measured for each of the following?

Inquiry: Sample `CC(=O)O[C@H]1C=CC(=O)O[C@@H]1[C@H](NC(=O)c1ccccc1)[C@H](O)c1ccccc1` — what was its pIC50?
Reply text: < 4.40

Inquiry: Sample `CC(=O)O[C@H]1C=CC(=O)O[C@@H]1[C@H]1N=C(c2ccccc2)O[C@@H]1c1ccccc1` — what was its pIC50?
Reply text: < 4.40

Inquiry: Sample `CC(=O)O[C@H]1C=CC(=O)O[C@H]1[C@H]1OC(=O)O[C@@H]1c1ccccc1` — what was its pIC50?
Reply text: < 4.40

====

- Tested on: SK-BR-3
- assay.notes: Cytotoxicity against human SKBR3 cells after 48 hrs by MTT assay
- Type: functional, cell-based
- measurement.setup: SK-BR-3, 48 h
measured.property: IC50

Inquiry: Observed IC50 on SK-BR-3 for `CC(=O)O[C@H]1C=CC(=O)O[C@@H]1[C@@H](NC(=O)/C=C/c1ccccc1)[C@H](O)c1ccccc1` , please.
Reply text: > 40 µM

Inquiry: Observed IC50 on SK-BR-3 for `CC(=O)O[C@H]1C=CC(=O)O[C@H]1[C@H]1OC(C)(C)O[C@@H]1c1ccccc1` , please.
Reply text: > 40 µM

Inquiry: Observed IC50 on SK-BR-3 for `CC(=O)O[C@H]1C=CC(=O)O[C@@H]1[C@@H](O)[C@H](O)c1ccccc1` , please.
Reply text: > 40 µM
